- MEASURED TARGET: T1, Murine CD73 on cells (4T1, Jurkat mCD73 knock-in) (murine, UniProt Q61503 29-551)
- T1 construct: whole, on cells; also called 4T1 (murine)
- T1 sequence (looked up): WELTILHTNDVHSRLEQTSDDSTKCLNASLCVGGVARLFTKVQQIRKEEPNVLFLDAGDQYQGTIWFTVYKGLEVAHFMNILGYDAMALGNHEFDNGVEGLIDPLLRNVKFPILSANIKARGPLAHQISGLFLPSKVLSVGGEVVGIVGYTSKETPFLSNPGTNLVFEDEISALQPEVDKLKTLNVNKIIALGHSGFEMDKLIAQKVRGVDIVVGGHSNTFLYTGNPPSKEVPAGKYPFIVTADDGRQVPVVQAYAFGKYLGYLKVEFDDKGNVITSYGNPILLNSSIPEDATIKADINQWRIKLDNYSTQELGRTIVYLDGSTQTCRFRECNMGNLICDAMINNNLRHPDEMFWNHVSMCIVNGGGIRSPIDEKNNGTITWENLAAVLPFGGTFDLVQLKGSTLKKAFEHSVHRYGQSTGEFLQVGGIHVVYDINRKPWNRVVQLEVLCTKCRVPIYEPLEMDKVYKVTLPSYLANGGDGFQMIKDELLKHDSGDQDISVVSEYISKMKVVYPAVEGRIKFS
- PROCEDURE TEXT: flow cytometry on cells
Give measured Kd for each item. Keep answers brief.
Write the value in nM as a bare number.

Task: # input binder: G10 (IgG1-TM) (antibody, V domains shown, IgG1-TM format; also called clone 10 G10) VH: EVQLLESGGGLVQPGGSLRLSCAASGFTFSSYAYSWVRQAPGKGLEWVSAISGSWGRTYYADSVKGRFTISRDNSKNTLYLQMNSLRAEDTAVYYCARLGYSTIDLWGRGTLVTVSS VL: QSVLTQPPSASGTPGQRVTISCSGSLSNIGRNDVNWYQQLPGTAPKLLIYLNNQRLGGVPDRFSGSKSGTSASLAISGLQSEDEADYYCATWDDSLKGWLFGGGTKLTVL ; wanted: its Kd
Output: 0.259

Task: Consider next the binder C2 (IgG1-TM) (antibody, V domains shown, IgG1-TM format; also called clone 10 C2) VH: EVQLLESGGGLVQPGGSLRLSCAASGFTFSSYAYSWVRQAPGKGLEWVSLIWGSWGSTYYADSVKGRFTISRDNSKNTLYLQMNSLRAEDTAVYYCARLGYSTIDMWGRGTLVTVSS VL: QSVLTQPPSASGTPGQRVTISCSGSLSNIGRNPVNWYQQLPGTAPKLLIYLDNLRLGGVPDRFSGSKSGTSASLAISGLQSEDEADYYCATWDDSLKGWLFGGGTKLTVL in the same way.
Output: 0.067

Data origin, for the record: patent US20230340152A1
